Please find below pKi data on UniProt:P41968 compiled from the literature.
pKi: −log10 of the molar value.
MEASURE: pKi

For orientation, consider the following solved cases.
COc1ccc([C@@H]2CN(c3ccc(=O)n(C)n3)C[C@H]2C(=O)N2CCCC(c3ccc(Cl)cc3)N(S(C)(=O)=O)CC2)c(F)c1 (mixture of isomers)	5.96
COC(=O)N1CCN(C(=O)[C@@H]2CN(c3ccc(C#N)nn3)C[C@H]2c2ccc(F)cc2F)CCC[C@H]1c1ccc(Cl)cc1	6.81
COC(=O)N1CCN(C(=O)[C@@H]2CN(c3cccnn3)C[C@H]2c2ccc(F)cc2F)CCC1c1ccccc1 (mixture of isomers)	5.65
N=C(N)NCCCCN(Cc1ccccc1)C(=O)C(Cc1c[nH]c2ccccc12)NC(=O)Cc1ccc2ccccc2c1 (stereo not drawn)	4.45
COC(=O)N1CCN(C(=O)[C@@H]2CN(c3ccc(=O)[nH]n3)C[C@H]2c2ccc(OC)cc2F)CCCC1c1ccc(Cl)cc1 (mixture of isomers)	6.39
CC(C)(C)C(=O)N1CCN(C(=O)[C@@H]2CN(C(C)(C)C)C[C@H]2c2ccc(F)cc2F)CCC[C@H]1c1ccc(Cl)cc1	5.47
CC(=O)N1CCN(C(=O)[C@@H]2CN(c3cccnn3)C[C@H]2c2ccc(F)cc2F)CCC1c1ccccc1 (mixture of isomers)	5.50
CC(C)(C)N1C[C@@H](C(=O)N2CCC[C@@H](c3ccc(Cl)cc3)N(C(=O)CC3CC3)CC2)[C@H](c2ccc(F)cc2F)C1	5.16
CC(C)(C)N1C[C@@H](C(=O)N2CCC[C@@H](c3ccc(Cl)cc3)N(C(=O)C3CCCC3)CC2)[C@H](c2ccc(F)cc2F)C1	5.56
N=C(N)NCCCCN(Cc1ccccc1)C(=O)C(Cc1c[nH]c2ccccc12)NC(=O)CCCc1ccccc1 (stereo not drawn)	4.63

[I] CNC(=O)N1CCN(C(=O)[C@@H]2CN(c3cccnn3)C[C@H]2c2ccc(F)cc2F)CCCC1c1ccccc1 (mixture of isomers)
[II] COC(=O)N1CCN(C(=O)[C@@H]2CN(c3ccc(=O)n(C)n3)C[C@H]2c2ccc(OC)cc2F)CCC[C@H]1c1ccc(Cl)cc1
**Query** Smaller pKi value, I vs II ? // return label of chosen record
**Result** I
(I: 6.01, II: 6.75)

[a] C[C@@H]1CN(C(=O)[C@@H]2CN(c3ccc(C#N)nn3)C[C@H]2c2ccc(F)cn2)C[C@H](C)[C@@]1(O)c1ccc(Cl)cc1
[b] CC(C)(C)N1C[C@@H](C(=O)N2CCC[C@@H](c3ccc(Cl)cc3)N(C(=O)C3CC3)CC2)[C@H](c2ccc(F)cc2F)C1
**Query** Compare a and b by numeric pKi and name the larger one. // return label of chosen record
**Result** a
(a: 6.34, b: 5.00)

[P] NCCCNC(=O)C(Cc1c[nH]c2ccccc12)NC(=O)Cc1cccc2ccccc12 (stereo not drawn)
[Q] COc1ccc([C@@H]2CN(c3ccc(Cl)nn3)C[C@H]2C(=O)N2CCCC(c3ccc(Cl)cc3)N(S(C)(=O)=O)CC2)c(F)c1 (stereo partly drawn)
**Query** Compare P and Q by numeric pKi and name the larger one. // return label of chosen record
**Result** Q

[A] COC(=O)N1CCN(C(=O)[C@@H]2CN(c3ccc(C#N)nn3)C[C@H]2c2ccc(F)cc2F)CCCC1c1ccc(Cl)cc1 (mixture of isomers)
[B] COC(=O)N1CCN(C(=O)[C@@H]2CN(c3ccc(=O)[nH]n3)C[C@H]2c2ccc(OC)cc2F)CCC[C@H]1c1ccc(Cl)cc1
**Query** Compare A and B by numeric pKi and name the larger one. // return label of chosen record
**Result** A
(A: 6.34, B: 6.00)

----------
Please find below Ki data on Melanocortin receptor 3 (Homo sapiens) compiled from the literature.
MEASURE: Ki (nM)

C[C@@H]1CN(C(=O)[C@@H]2CN(c3ccc(C#N)nn3)C[C@H]2c2ccc(Cl)cn2)C[C@H](C)[C@@]1(O)c1ccc(F)cc1	124
COc1ccc([C@@H]2CN(c3ccc(C#N)nn3)C[C@H]2C(=O)N2CCCC(c3ccc(Cl)cc3)N(S(C)(=O)=O)CC2)c(F)c1 (mixture of isomers)	571
CS(=O)(=O)N1CCN(C(=O)[C@@H]2CN(c3ccc(C#N)nn3)C[C@H]2c2ccc(C#N)cc2)CCCC1c1ccc(Cl)cc1 (mixture of isomers)	2150

[A] CC(C)C(=O)N1CCN(C(=O)[C@@H]2CN(C(C)(C)C)C[C@H]2c2ccc(Cl)cn2)CCC[C@H]1c1ccc(Cl)cc1
[B] N=C(N)NN=Cc1cccn1-c1cc(Cl)cc(Cl)c1
[C] COC(=O)N1CCN(C(=O)[C@@H]2CN(c3ccc(C#N)nn3)C[C@H]2c2ccc(Cl)cn2)CCC[C@H]1c1ccc(Cl)cc1
[D] CCCC(=O)N1CCN(C(=O)[C@@H]2CN(C(C)(C)C)C[C@H]2c2ccc(F)cc2F)CCC[C@H]1c1ccc(Cl)cc1
**Query** Order by Ki, ascending. Would you mind listing the labels in the order asked for?
**Result** C, A, D, B

[a] COC(=O)N1CCN(C(=O)[C@@H]2CN(C(C)(C)C)C[C@H]2c2ccc(OC)cc2F)CCCC1c1ccc(Cl)cc1 (some centres unmarked)
[b] COC(=O)N1CCN(C(=O)[C@@H]2CN(c3ccc(C#N)nn3)C[C@H]2c2ccc(F)cc2F)CCCC1c1cccc(OC)c1 (mixture of isomers)
**Query** Smaller Ki value, a vs b ? // return label of chosen record
**Result** b
